TARGET_DESC: HLA-A*24:02
ASSAY_PROTOCOL: IEDB peptide-MHC binding, purified MHC/competitive/fluorescence; bounds were set here for any values at or beyond the usual limits of such assays
RUN_CONDITIONS: source organism: Variola virus
MEASURED_QUANTITY: pIC50
Expect pIC50 as a plain number equal to -log10 of the molar concentration.

Q) pIC50 for WISHRPVVL ?
A) 4.67

----------
TARGET_DESC: HLA-B*48:01
ASSAY_PROTOCOL: IEDB peptide-MHC binding, purified MHC/direct/fluorescence; filed as Kd, often an IC50 or EC50 that approximates it; bounds were set here for any values at or beyond the usual limits of such assays
RUN_CONDITIONS: source organism: Vibrio cholerae
MEASURED_QUANTITY: Kd

Q) Which Kd value is on record for YLKKGRLSL ?
A) ≥ 20 µM

----------
TARGET_DESC: HLA-B*08:01
ASSAY_PROTOCOL: IEDB peptide-MHC binding, purified MHC/direct/fluorescence; filed as Kd, often an IC50 or EC50 that approximates it; bounds were set here for any values at or beyond the usual limits of such assays
RUN_CONDITIONS: source organism: Vibrio cholerae
MEASURED_QUANTITY: Kd

Q) Give recorded Kd with HLA-B*08:01 for the following sequence: RYDYANLCQ
A) ≥ 20 µM

----------
TARGET_DESC: HLA-A*01:01
ASSAY_PROTOCOL: IEDB peptide-MHC binding, purified MHC/competitive/radioactivity; filed as Kd, often an IC50 or EC50 that approximates it; bounds were set here for any values at or beyond the usual limits of such assays
RUN_CONDITIONS: source organism: Mammarenavirus lassaense
pKd: −log10 of the molar value.
MEASURED_QUANTITY: pKd

Q) Suppose we examine the sequence AGFSAGLTY ; what pKd value has been reported?
A) ≤ 4.62

----------
TARGET_DESC: HLA-A*02:03
ASSAY_PROTOCOL: IEDB peptide-MHC binding, purified MHC/competitive/fluorescence; filed as Kd, often an IC50 or EC50 that approximates it; bounds were set here for any values at or beyond the usual limits of such assays
RUN_CONDITIONS: source organism: Giardia lamblia ATCC 50803
MEASURED_QUANTITY: pKd
FYI, pKd means -log10 of a concentration in mol per litre.

Q) Item HCIDKTPGL has what recorded pKd?
A) 5.61

----------
TARGET_DESC: HLA-B*15:09
ASSAY_PROTOCOL: IEDB peptide-MHC binding, purified MHC/direct/fluorescence; filed as Kd, often an IC50 or EC50 that approximates it; bounds were set here for any values at or beyond the usual limits of such assays
RUN_CONDITIONS: source organism: Influenza A virus(A/swine/Shandong/fNY/2003(H9N2))
pKd: −log10 of the molar value.
MEASURED_QUANTITY: pKd

Q) Consider the sequence shown here: ITKEKKEEL What is its recorded pKd?
A) ≤ 4.70

----------
TARGET_DESC: HLA-A*02:06
ASSAY_PROTOCOL: IEDB peptide-MHC binding, purified MHC/competitive/fluorescence; filed as Kd, often an IC50 or EC50 that approximates it; bounds were set here for any values at or beyond the usual limits of such assays
RUN_CONDITIONS: source organism: Human immunodeficiency virus 1
MEASURED_QUANTITY: Kd

Q) Data request, read-out Kd, for FLGKIWPS
A) ≤ 0.1 nM
